Exercise: for every item that follows, state its recorded interaction score.
Target: T1, 4H1401-AA
T1 chain: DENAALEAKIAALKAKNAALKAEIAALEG
Experiment: two-hybrid library CCmax;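 further: natural log of median RNA to DNA barcode read ratio; higher means stronger binding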
Settings: mean of both orientations
When you answer, write just the number.

Enquiry: Bench note: what interaction score did DENAALEAKIAALEAKIAALKAENAALKG [4H1324-AA] show?
Return: -1.6

Enquiry: Proceed to DEIAALEAEIAALKAKNAALKAENAALEG [4H123-AA]
Return: -1.83

Enquiry: Proceed to DENAALEAEIAALKAKIAALKAKNAALEG [4H1135-AA]
Return: -1.46
